Test system: NCI-H187
PROTOCOL DESCRIPTION: Cytotoxicity against human NCI-H187 cells by colorimetric method
Assay type: functional, cell-based
The source made the active and inactive calls. The calls are words filed in the database; no cut-off is given here.
PROPERTY LABEL: Activity

Example results:
| MOLECULE SMILES | SUBJECT OF TEST | PROPERTY LABEL | RECORDED VALUE |
| --- | --- | --- | --- |
| CC1(C)CC[C@]2(C(=O)O)CC[C@]3(C)C(=CC[C@@H]4[C@@]5(C)CC[C@H](O[C@@H]6OC[C@H](O)[C@H](O)[C@H]6O)[C@@](C)(CO)[C@@H]5CC[C@]43C)[C@@H]2C1 | NCI-H187 | Activity | inactive |
| CC(=O)O[C@H]1CO[C@@H](O[C@H]2CC[C@@]3(C)[C@@H](CC[C@]4(C)[C@@H]3CC=C3[C@@H]5CC(C)(C)CC[C@]5(C(=O)O)CC[C@]34C)[C@]2(C)CO)[C@H](O)[C@H]1O | NCI-H187 | Activity | inactive |
| CC(=O)O[C@@H]1[C@@H](O)[C@H](O[C@H]2CC[C@@]3(C)[C@@H](CC[C@]4(C)[C@@H]3CC=C3[C@@H]5CC(C)(C)CC[C@]5(C(=O)O)CC[C@]34C)[C@]2(C)CO)OC[C@@H]1O | NCI-H187 | Activity | inactive |
| CC(=O)O[C@H]1[C@H](O[C@H]2CC[C@@]3(C)[C@@H](CC[C@]4(C)[C@@H]3CC=C3[C@@H]5CC(C)(C)CC[C@]5(C(=O)O)CC[C@]34C)[C@]2(C)CO)OC[C@H](O)[C@@H]1O | NCI-H187 | Activity | inactive |

Consider now this further compound.
*Q* Form field: reported Activity of CC(=O)O[C@@H]1[C@@H](OC(C)=O)[C@H](O[C@H]2CC[C@]3(C)[C@H]4CC=C5[C@@H]6CC(C)(C)CC[C@]6(C(=O)O)CC[C@@]5(C)[C@]4(C)CC[C@H]3C2(C)C)OC[C@@H]1OC(C)=O
*A* inactive
